Entry source: PubChem BioAssay AID1159580

RUN DESCRIPTION: chemical genetic growth profiling, strain panel (AID 1159580);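 further: tested at 20 µM; growth read once vehicle control cultures reached saturation at 30 °C; 1 = growth at the plate median or of vehicle wells; lower values mean less growth of the strain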
MEASUREMENT CONTEXT: S. cerevisiae deletion strains, growth OD, locus YJR043C, strain POL32, active compounds read low
Screen size: about 5,500 compounds; about 2,000 (36%) were called active. Not shown: some 18% with an inconclusive outcome. The list shows a part of the results.
Provide the recorded normalized growth for the entries that follow.
Lab note: jot down the number only; don't add units.

Query: Give the reported value of normalized growth for this record: CSc1c(C#N)c(-c2cccs2)nn1C
Reply: 0.978

Query: Determine from records and report normalized growth for Cc1c(-c2ccnc(N)n2)nnn1-c1ccc(Cl)cc1Cl
Reply: 1.01

Query: Supply reported normalized growth belonging to this compound: COc1ccc(C(Cl)=C(c2ccc(OC)cc2)c2ccc(OC)cc2)cc1
Reply: 0.999

Query: For the compound CC(C)(C)C(=O)NC(=S)Nc1cccc(C(F)(F)F)c1 , report normalized growth.
Reply: 0.957

Query: Return reported normalized growth. Input compound: C=CC(C)(O)CC/C=C(\C)CCC=C(C)C (stereo not given)
Reply: 0.978

Query: Please indicate normalized growth recorded for NC(=O)c1ccccc1N1CCCCC1
Reply: 0.99

Query: Given COC(C)(C)CCC[C@H](C)C/C=C/C(C)=C/C(=O)OC(C)C , respond with its normalized growth.
Reply: 1.01

Query: Retrieve normalized growth measured for CCCC(C)C1(CC)C(=O)NC(=O)NC1=O (stereo not given) and print it.
Reply: 1.05

Query: Consider the compound CCCC(C)C1(CC)C(=O)N=C(S)NC1=O (stereo not given) and give its recorded normalized growth.
Reply: 1.02

Query: // Input: C[C@H]1[C@H]2CCC3C4CC=C5C[C@@H](N(C)C)CC[C@]5(C)C4CC[C@@]32CN1C (stereo not given in full) . Output its normalized growth only.
Reply: 0.993

Query: Respond only with normalized growth recorded for CCN(CC)CCOc1ccc(/C(=C(\Cl)c2ccccc2)c2ccccc2)cc1
Reply: 0.064

Query: Note normalized growth for the compound shown: CSC1=NCN(Cc2ccccc2)CN1
Reply: 1

Query: Fill in normalized growth for record C=C[C@](C)(O)CCC=C(C)C
Reply: 1.04

Query: Supply reported normalized growth belonging to this compound: c1ccc2c3c([nH]c2c1)CNCC3
Reply: 1.01

Query: Give the value of normalized growth reported for the following: COC(=O)c1ccc(-c2ccc(Cl)cc2)s1
Reply: 0.927

Query: Look up and report measured normalized growth for this entry: O=[N+]([O-])/C=C/c1ccsc1
Reply: 0.0674

Query: Give the measured normalized growth for O=C(O)CF
Reply: 0.984

Query: For the compound Cc1onc(NC(=O)NC(=O)c2c(F)cccc2Cl)c1Br , report normalized growth.
Reply: 1.01

Query: Return value of normalized growth for input OC(CNCCc1cccs1)COc1ccccc1 (stereo not given) , no commentary.
Reply: 0.994

Query: Return normalized growth (reported value) for this compound: NC(=S)N/N=C\c1cc(F)cc(F)c1
Reply: 0.98

Query: Please report the measured normalized growth for NC(N)=NC(N)=Nc1cc(C(F)(F)F)cc(C(F)(F)F)c1
Reply: 1.01

Query: Tell me measured normalized growth for CC(C)=CCC[C@](C)(O)C1CC=C(C)CC1 (stereo not given in full) please.
Reply: 1.01

Query: Indicate the recorded normalized growth value for this compound: NC(=NS(=O)(=O)c1cc(C(F)(F)F)cc(C(F)(F)F)c1)c1cccs1
Reply: 0.957

Query: Find the measured normalized growth of CC(C)N(Cc1ccc(N(C)C)cc1)S(=O)(=O)c1cc(Cl)c(Cl)cc1Cl and report it.
Reply: 1.01

Query: Using known records, supply normalized growth for NC(=S)N/N=C\c1ccc(F)c(Cl)c1
Reply: 0.996

====

RUN DESCRIPTION: chemical genetic growth profiling, strain panel (AID 1159580);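 further: tested at 20 µM; growth read once vehicle control cultures reached saturation at 30 °C; 1 = growth at the plate median or of vehicle wells; lower values mean less growth of the strain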
MEASUREMENT CONTEXT: S. cerevisiae deletion strains, growth OD, locus YOR070C, strain gyp1, active compounds read low
Screen size: about 5,500 compounds; about 2,000 (36%) were called active. Another 18% or so got no clear call; they are omitted. Some of the results follow.
Please respond with reported normalized growth for every item in the list.
// keep it numeric: no unit symbol after the value

Query: Look up and state reported normalized growth for COc1ccccc1OCCNCC(O)COc1cccc2[nH]c3ccccc3c12 (stereo not drawn)
Reply: 1

Query: Give recorded normalized growth. Oc1c(I)cc(I)c2cccnc12
Reply: 0.575

Query: Give the reported normalized growth for this compound. CCCC(C)C1(CC)C(=O)NC(=O)NC1=O (stereo not drawn)
Reply: 1

====

RUN DESCRIPTION: chemical genetic growth profiling, strain panel (AID 1159580);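 further: tested at 20 µM; growth read once vehicle control cultures reached saturation at 30 °C; 1 = growth at the plate median or of vehicle wells; lower values mean less growth of the strain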
MEASUREMENT CONTEXT: S. cerevisiae deletion strains, growth OD, locus YAL021C, strain ccr4, active compounds read low
The campaign covered roughly 5,500 compounds. About 2,000 (36%) were called active. Not shown: some 18% with an inconclusive outcome. The list shows a part of the results.
For each record, write down the corresponding normalized growth.
API note: the answer field is a bare number with no unit suffix.

Query: Give the value of normalized growth reported for the following: CCCC(C)C1(CC)C(=O)N=C(S)NC1=O (stereo not given)
Reply: 0.993

Query: Name the recorded normalized growth of the item CO[C@H]1/C=C/O[C@@]2(C)Oc3c(C)c(O)c4c(O)c(c(/C=N/N5CCN(C)CC5)c(O)c4c3C2=O)NC(=O)/C(C)=C\C=C\C(C)[C@H](O)[C@@H](C)[C@@H](O)[C@@H](C)[C@@H](OC(C)=O)[C@@H]1C (stereo not given in full) in your answer.
Reply: 1.01

Query: State its normalized growth for this compound: CCCC(C)C1(CC)C(=O)NC(=O)NC1=O (stereo not given)
Reply: 0.996

Query: Dear colleague, please send me the reported normalized growth for O=[N+]([O-])c1cc(O)c(O)c([N+](=O)[O-])c1 when you can.
Reply: 1.01

Query: Determine its reported normalized growth: CC(C)NCC(O)c1ccc2ccccc2c1 (stereo not given)
Reply: 0.992

====

RUN DESCRIPTION: chemical genetic growth profiling, strain panel (AID 1159580);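 further: tested at 20 µM; growth read once vehicle control cultures reached saturation at 30 °C; 1 = growth at the plate median or of vehicle wells; lower values mean less growth of the strain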
MEASUREMENT CONTEXT: S. cerevisiae deletion strains, growth OD, locus YMR078C, strain ctf18
The campaign covered roughly 5,500 compounds. About 2,000 (36%) were called active. About 18% were inconclusive and are not listed. No stated cut-off is given here; in the data, active means normalized growth mostly below about 0.91 (no sharp cut-off); inconclusive means no clear call, values can overlap the other calls; inactive means mostly above about 0.92. This is one part of the list.
Returns: one label drawn from active, inactive

Query: For this compound, state the assay outcome: CS(=O)(=O)CCCCN=C=S
Reply: inactive

Query: Look up the recorded call for CC(C)=CCC[C@](C)(O)C1CC=C(C)CC1 (stereo partly drawn) in this test.
Reply: inactive

Query: Lab log entry: O=[N+]([O-])c1cc(O)c(O)c([N+](=O)[O-])c1 — outcome as called in the assay?
Reply: inactive

Query: Returns: the outcome recorded for CC(C)NCC(O)c1ccc2ccccc2c1 (stereo not drawn) in this assay.
Reply: inactive

Query: Recorded test call requested for C=C(C)[C@H]1CC=C(C(=O)O)CC1
Reply: inactive

Query: # fetch the recorded call for Cc1c(O)c(O)cc2c1CC=C1[C@@]2(C)CC[C@@]2(C)C3C[C@](C)(C(=O)O)CC[C@]3(C)CC[C@]12C (stereo partly drawn) here
Reply: inactive

Query: Per the assay record, what outcome was assigned to NCC(CC(=O)O)c1ccc(Cl)s1 (stereo not drawn) ?
Reply: inactive

Query: Hello, I am checking results. What call was entered for CN[C@H](CC(=O)O)C(=O)O ?
Reply: inactive

Query: Hi, do you know how O=C(CCCCCCCCCCCCC1CCCC1)Nc1ccc(S(=O)(=O)c2ccc(NC(=O)CCCCCCCCCCCCC3CCCC3)cc2)cc1 came out in this test?
Reply: inactive

Query: Recorded test call requested for CC(=O)Nc1cc([As](=O)(O)O)ccc1O
Reply: inactive

Query: // return assay outcome for C=CC(C1=CC(=O)C(OC)=CC1=O)c1ccccc1 (stereo not drawn)
Reply: inactive

Query: Recorded test call requested for OC[C@@H]1CCCN2CCCC[C@H]12
Reply: inactive

Query: What outcome does the record of this test show for COC(C)(C)CCC[C@H](C)C/C=C/C(C)=C/C(=O)OC(C)C ?
Reply: inactive

Query: Returns: the outcome recorded for NC(=NCCC[C@H](N)C(=O)O)NC(CCC(=O)O)C(=O)O (stereo partly drawn) in this assay.
Reply: inactive

Query: What did the test return for C=C[C@](C)(O)CCC=C(C)C ?
Reply: inactive

Query: // param item: Nc1ccc(S(=O)(=O)Nc2ccc(Cl)nn2)cc1 ; yields the recorded call
Reply: inactive

Query: Please indicate how the test categorized Oc1c(Br)cc(Br)c2cccnc12 .
Reply: active

Query: Dear all, I need the recorded test outcome for O=C(O[C@@H]1Cc2c(O)cc(O)cc2O[C@@H]1c1cc(O)c(O)c(O)c1-c1c([C@H]2Oc3cc(O)cc(O)c3C[C@H]2O)cc(O)c(O)c1O)c1cc(O)c(O)c(O)c1 , thank you.
Reply: inactive

Query: Per the records of this test, what outcome belongs to CC(=O)c1c(O)c(C)c(O)c2c1OC1=CC(=O)C(C(C)=O)C(=O)C12C (stereo not drawn) ?
Reply: inactive

Query: Given CCCC(C)C1(CC)C(=O)N=C(S)NC1=O (stereo not drawn) , state the outcome it received in this test.
Reply: active

Query: Hey, what did the test say about CCCc1occc(=O)c1/C=C/O ?
Reply: inactive

Query: Hey, what did the test say about CCCCC1=NC2(CCCC2)C(=O)N1Cc1ccc(-c2ccccc2-c2nn[nH]n2)cc1 ?
Reply: inactive

Query: For COc1cc2c(c(OC)c1OC)-c1ccc(OC)c(=O)cc1[C@@H](NC(C)=O)CC2 , which call appears in the assay record?
Reply: inactive

Query: What was the test verdict on O=C(OC1Cc2c(O)cc(O)cc2OC1c1cc(O)c(O)c(O)c1-c1c(C2Oc3cc(O)cc(O)c3CC2OC(=O)c2cc(O)c(O)c(O)c2)cc(O)c(O)c1O)c1cc(O)c(O)c(O)c1 (stereo not drawn) ?
Reply: inactive

Query: For COC(=O)Oc1ccccc1C(=O)O , which call appears in the assay record?
Reply: inactive

Query: Please state the recorded outcome for this compound: Oc1c(Cl)cc(Cl)c2cccnc12
Reply: active

Query: Tell me the recorded outcome of this test for Nc1ccc(S(=O)(=O)Nc2ccccn2)cc1 .
Reply: inactive

Query: What was the test verdict on C=C[C@@H](C1=CC(=O)C(OC)=C(OC)C1=O)c1ccccc1 ?
Reply: active

Query: GET /call?item= C=CC(C)(O)CC/C=C(\C)CCC=C(C)C (stereo not drawn) returns the recorded outcome of this test.
Reply: inactive

Query: For this compound, state the assay outcome: COC(=O)C[C@H]1C(C)(C)C(=O)[C@@H]2CC3=C4CC(=O)O[C@@H](c5ccoc5)[C@]4(C)CCC3[C@@]1(C)C2=O (stereo partly drawn)
Reply: inactive

Query: // param item: CC(C)(C)NCC(O)c1ccccc1Cl (stereo not drawn) ; yields the recorded call
Reply: inactive

Query: Dear all, I need the recorded test outcome for COC(=O)[C@]1(C)CC[C@]2(C)CC[C@]3(C)C4=CCc5c(cc(O)c(O)c5C)[C@]4(C)CC[C@@]3(C)C2C1 (stereo partly drawn) , thank you.
Reply: inactive

Query: Kindly provide the recorded test outcome for the following compound: CN1C(CC(=O)c2ccccc2)CCCC1CC(O)c1ccccc1 (stereo not drawn)
Reply: inactive

Query: Just curious, what result did O=C(O)CCCCC1CCSS1 (stereo not drawn) get here?
Reply: inactive

Query: How was Cc1ccc2cc3c(ccc4ccccc43)c3c2c1CC3 classified in this test?
Reply: inactive

Query: Which outcome was entered for the compound O=C(O)/C=C/C=C/c1ccccc1 in this test?
Reply: active

Query: # fetch the recorded call for CNC[C@@H](O)c1ccc(O)c(O)c1 here
Reply: inactive

Query: Per the assay record, what outcome was assigned to COc1ccccc1OCCNCC(O)COc1cccc2[nH]c3ccccc3c12 (stereo not drawn) ?
Reply: inactive
